- SYSTEM NAME: FXR (Homo sapiens (Human), UniProt Q96RI1)
- Sequence (Q96RI1 262-486): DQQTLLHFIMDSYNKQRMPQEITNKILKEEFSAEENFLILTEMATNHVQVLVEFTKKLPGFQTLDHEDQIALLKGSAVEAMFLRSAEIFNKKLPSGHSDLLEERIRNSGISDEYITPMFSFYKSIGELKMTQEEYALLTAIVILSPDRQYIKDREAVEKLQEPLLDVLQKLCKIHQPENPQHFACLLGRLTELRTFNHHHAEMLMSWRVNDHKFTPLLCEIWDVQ
- PROTOCOL: FXR EC50 (FXR agonist activity reported with each example)
- Type: cell-based
MEASURED PARAMETER: pEC50
# log scale: pEC50 equals minus log10 of the concentration in mol/L

Record excerpt, results attached:
# MOLECULE, pEC50
measured = [
    ("O=C(O)c1ccc2nc(C34CCC(/C=C/c5c(-c6ccccc6OC(F)(F)F)noc5C5CC5)(CC3)CC4)sc2c1 [Example 182]", 7.00),
    ("O=C(O)c1ccc(C(F)(F)F)c2nc(C34CCC(OCc5c(-c6c(Cl)cncc6Cl)noc5C5CC5)(CC3)CC4)ccc12 [Example 398]", 7.52),
    ("NC(=O)c1cnc(OCC23CCC(OCc4c(-c5c(Cl)cncc5Cl)noc4C4CC4)(CC2)CC3)c(C(F)(F)F)c1 [Example 278]", 6.21),
]

[ask] Return reported pEC50; argument: NC(=O)c1cc(C(F)(F)F)c2cc(OCC34CCC(OCc5c(-c6c(Cl)cncc6Cl)noc5C5CC5)(CC3)CC4)ccc2n1 [Example 291]
[reply] 6.64

[ask] Return reported pEC50; argument: O=C(O)c1ccc2c(C(O)C34CCC(OCc5c(-c6c(Cl)cccc6Cl)noc5C5CC5)(CC3)CC4)ccnc2c1 (stereo not shown) [Example 128]
[reply] 6.15

[ask] Return reported pEC50; argument: O=C(O)c1cc(-c2noc(C34CCC(COCc5c(-c6c(Cl)cncc6Cl)noc5C5CC5)(CC3)CC4)n2)cc(C(F)(F)F)c1 [Example 485]
[reply] 6.42

[ask] Return reported pEC50; argument: O=C(O)c1cccc(C23CCC(COCc4c(-c5c(Cl)cccc5Cl)noc4C4CC4)(CC2)CO3)c1 [Example 195]
[reply] 7.33

[ask] Return reported pEC50; argument: O=C(O)c1cc(C#CC23CCC(OCc4c(-c5c(Cl)cncc5Cl)noc4C4CC4)(CC2)CC3)cc(C(F)(F)F)c1 [Example 366]
[reply] 7.57

[ask] Return reported pEC50; argument: O=C(O)c1cc(OC2CCC2)c2cc(OCC34CCC(OCc5c(-c6c(Cl)cncc6Cl)noc5C5CC5)(CC3)CC4)cc(F)c2n1 [Example 308]
[reply] 7.92

[ask] Return reported pEC50; argument: O=C(O)c1cc(C(F)(F)F)cc2nc(C34CCC(OCc5c(C(C6CC6)C6CC6)noc5C5CC5)(CC3)CC4)ccc12 [Example 423]
[reply] 7.17
